- test: DRUGMATRIX: Serotonin (5-Hydroxytryptamine) 5-HT3 radioligand binding (ligand: [3H] GR-65630)
- Type: cell membranes, Membrane
- condition_label: hek293; Not Active = under 50% inhibition at 10 µM; read-out: IC50
measured_metric: IC50 (µM)
Response body: numeric value in µM, unit text excluded.

Challenge: // IC50 lookup, key: CCN(CC)CCNC(=O)c1cc(Cl)c(N)cc1OC [METOCLOPRAMIDE]
Response given: 4.01

====

- target: Neutrophil elastase (Homo sapiens); also: in other assays of this panel Not Active means under 50% inhibition at 10 µM;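 also: inhibition of neutrophil elastase enzyme activity, measured with a p-nitroanilide-linked peptide substrate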
- Sequence (P08246 whole entry): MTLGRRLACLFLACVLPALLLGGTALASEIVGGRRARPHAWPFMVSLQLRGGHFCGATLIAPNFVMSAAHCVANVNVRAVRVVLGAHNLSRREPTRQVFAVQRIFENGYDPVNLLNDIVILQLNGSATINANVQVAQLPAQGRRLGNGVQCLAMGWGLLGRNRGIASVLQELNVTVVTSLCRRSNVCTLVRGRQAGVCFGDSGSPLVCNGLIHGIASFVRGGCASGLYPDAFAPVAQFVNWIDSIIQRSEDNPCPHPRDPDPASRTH
- Type: tissue-based
measured_metric: IC50

Solved entries (count: 4):
molecule	IC50
CC12CCC(CC1)C(C)(C)O2	Not Active
COC(=O)Nc1nc2ccc(C(=O)c3ccccc3)cc2[nH]1	Not Active
Nc1nc(N)c2nc(-c3ccccc3)c(N)nc2n1	Not Active
C=C(Cl)Cl	Not Active

Challenge: // IC50 lookup, key: Cc1ccc(S(=O)(=O)NC(=O)NN2CCCCCC2)cc1 [TOLAZAMIDE]
Response given: Not Active

Challenge: // IC50 lookup, key: "OC[C@H]1O[C@@H]2O[C@H]3[C@H](O)[C@@H](O)[C@@H](O[C@H]4[C@H](O)[C@@H](O)[C@@H](O[C@H]5[C@H](O)[C@@H](O)[C@@H](O[C@H]6[C@H](O)[C@@H](O)[C@@H](O[C@H]7[C@H](O)[C@@H](O)[C@@H](O[C@H]1[C@H](O)[C@H]2O)O[C@@H]7CO)O[C@@H]6CO)O[C@@H]5CO)O[C@@H]4CO)O[C@@H]3CO"
Response given: Not Active

Challenge: // IC50 lookup, key: "C#C[C@]1(O)CC[C@H]2[C@@H]3[C@H](C)CC4=C(CCC(=O)C4)[C@H]3CC[C@@]21C"
Response given: Not Active

Challenge: // IC50 lookup, key: "Oc1ccccc1"
Response given: Not Active

Challenge: // IC50 lookup, key: "Oc1ncnc2[nH]ncc12"
Response given: Not Active

====

- target: Caspase-1 (Homo sapiens);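 also: Caspase-1 enzyme inhibition assay with a peptide substrate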; also: in other assays of this panel Not Active means under 50% inhibition at 10 µM
- Sequence (P29466 whole entry): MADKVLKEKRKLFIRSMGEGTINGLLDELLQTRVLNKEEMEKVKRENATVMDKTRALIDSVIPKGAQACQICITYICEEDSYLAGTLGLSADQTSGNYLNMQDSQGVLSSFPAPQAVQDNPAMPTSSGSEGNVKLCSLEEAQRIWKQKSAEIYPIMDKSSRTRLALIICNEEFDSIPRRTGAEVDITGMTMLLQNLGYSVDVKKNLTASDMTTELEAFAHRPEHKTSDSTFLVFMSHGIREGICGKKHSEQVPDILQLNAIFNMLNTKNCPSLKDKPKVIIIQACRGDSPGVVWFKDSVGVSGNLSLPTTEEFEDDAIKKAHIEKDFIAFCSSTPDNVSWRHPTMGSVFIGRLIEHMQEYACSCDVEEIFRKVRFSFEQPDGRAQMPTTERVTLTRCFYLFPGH
- Set-up: species or system Escherichia coli
- condition_label: read-out: IC50
measured_metric: IC50 (µM)
Response body: numeric value in µM, unit text excluded.

Challenge: Please state recorded IC50 (tested on Caspase-1 (Homo sapiens)) of "Nc1nc(N)c2nc(-c3ccccc3)c(N)nc2n1"
Response given: 3.66

Challenge: Please state recorded IC50 (tested on Caspase-1 (Homo sapiens)) of "O=C(O)c1cc(/N=N/c2ccc(S(=O)(=O)Nc3ccccn3)cc2)ccc1O"
Response given: 28.8
